# test-target: IgE antibodies of the individual allergic patient serum II/3
# experiment-notes: EAST inhibition, individual serum II/3
pIC50: −log10 of the molar value.
Catalogue of binders with associated pIC50

binder | pIC50
rPhl p 5b point mutant PM3 (A13C) (protein) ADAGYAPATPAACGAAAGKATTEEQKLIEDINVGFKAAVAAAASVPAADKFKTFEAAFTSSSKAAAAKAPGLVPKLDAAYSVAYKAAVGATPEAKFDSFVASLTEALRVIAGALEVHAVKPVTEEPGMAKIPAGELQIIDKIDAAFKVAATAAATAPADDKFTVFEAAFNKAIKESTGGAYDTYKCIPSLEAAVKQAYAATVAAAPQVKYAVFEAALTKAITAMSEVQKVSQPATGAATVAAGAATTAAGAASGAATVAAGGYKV | 7.82
natural Phl p 5b, purified by affinity chromatography (protein) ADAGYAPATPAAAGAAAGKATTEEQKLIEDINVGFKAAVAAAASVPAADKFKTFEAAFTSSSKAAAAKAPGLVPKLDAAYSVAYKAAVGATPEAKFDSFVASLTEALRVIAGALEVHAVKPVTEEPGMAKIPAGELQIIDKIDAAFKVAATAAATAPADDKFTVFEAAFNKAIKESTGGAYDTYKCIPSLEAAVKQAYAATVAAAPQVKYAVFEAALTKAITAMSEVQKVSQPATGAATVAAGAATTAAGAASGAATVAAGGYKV | 8.23
recombinant Phl p 5b (wild type) (protein) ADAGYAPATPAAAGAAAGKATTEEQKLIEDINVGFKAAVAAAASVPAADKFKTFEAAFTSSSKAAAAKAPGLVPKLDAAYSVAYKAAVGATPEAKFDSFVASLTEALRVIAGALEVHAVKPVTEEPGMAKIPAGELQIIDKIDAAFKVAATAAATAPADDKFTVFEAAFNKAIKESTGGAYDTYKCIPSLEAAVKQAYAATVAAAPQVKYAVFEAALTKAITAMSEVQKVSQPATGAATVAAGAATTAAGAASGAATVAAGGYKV | 7.85
